Target: T1, alpha-amylase (Homo sapiens, UniProt P0DUB6 P0DUB6:16-511)
T1 sequence: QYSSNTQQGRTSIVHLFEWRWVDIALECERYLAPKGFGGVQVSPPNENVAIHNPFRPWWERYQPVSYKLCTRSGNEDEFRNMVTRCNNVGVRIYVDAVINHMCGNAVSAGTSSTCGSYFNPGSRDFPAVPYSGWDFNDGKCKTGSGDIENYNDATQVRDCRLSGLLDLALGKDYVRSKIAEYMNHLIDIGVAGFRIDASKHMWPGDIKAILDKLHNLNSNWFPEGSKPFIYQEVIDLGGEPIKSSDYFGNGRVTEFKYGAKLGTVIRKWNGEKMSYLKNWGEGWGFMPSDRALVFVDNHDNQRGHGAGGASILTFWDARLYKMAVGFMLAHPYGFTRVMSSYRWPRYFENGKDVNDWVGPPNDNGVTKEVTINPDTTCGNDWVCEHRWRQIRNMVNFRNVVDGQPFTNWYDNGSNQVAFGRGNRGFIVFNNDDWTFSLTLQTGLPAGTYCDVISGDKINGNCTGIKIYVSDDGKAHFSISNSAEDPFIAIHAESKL
Experiment: SPR; SPR buffer with 1 mM MgCl2, pH 7.4; Chi2 4.17
Conditions: tags: none stated; commercial human alpha-amylase, Lee Biosolutions; label: 3' poly(dA)20 captured on biotin-poly(dT)20
Assay Endpoint: Kd (nM)
Numbers only; they are read as nM.

INPUT: Consider the binder AML1243KR8m1s65_FW_s20 (ssDNA, KS9 modified T (formula 1) at underlined T, i.e. T 3' of the 5' primer region) DNA: TACCTTAACGCCGCCTATTGTGAACGACGTGAATAGTGTTTGTGGGTCCGGAGTTGCACCCGAAAAAAAAAAAAAAAAAAAA and give its measured Kd.
OUTPUT: 0.68
